Organism: Rattus norvegicus
assay info: Open TG-GATES - Regimen: Daily Repeat
Assay type: toxicity, organism-based, Sprague-Dawley
Parameters: regimen Daily Repeat, gender Male, age 6 weeks
setup conditions: in vivo, po, 0 mg/kg, […], tissue Plasma, route gavage, dose level Control, time 7 day
measured quantity: PL (mg/dL)

compound="NC1=NC(=O)C(c2ccccc2)O1 (stereo not given)" units_of_measure=mg/dL experimental_result=160.8
compound=Brc1ccccc1 units_of_measure=mg/dL experimental_result=145.8
compound="CN(C)CCC(c1ccc(Cl)cc1)c1ccccn1 (stereo not given)" units_of_measure=mg/dL experimental_result=166.4
compound=CC(C)NNC(=O)c1ccncc1 units_of_measure=mg/dL experimental_result=156.2
compound=O=C(OC[C@H]1O[C@@H](OC(=O)c2cc(O)c(O)c(OC(=O)c3cc(O)c(O)c(O)c3)c2)[C@H](OC(=O)c2cc(O)c(O)c(OC(=O)c3cc(O)c(O)c(O)c3)c2)[C@@H](OC(=O)c2cc(O)c(O)c(OC(=O)c3cc(O)c(O)c(O)c3)c2)[C@@H]1OC(=O)c1cc(O)c(O)c(OC(=O)c2cc(O)c(O)c(O)c2)c1)c1cc(O)c(O)c(OC(=O)c2cc(O)c(O)c(O)c2)c1 units_of_measure=mg/dL experimental_result=160.2
compound=CCOc1ccc(NC(C)=O)cc1 units_of_measure=mg/dL experimental_result=167.6
compound=COC(=O)C1=C(C)NC(C)=C(C(=O)OC)C1c1ccccc1[N+](=O)[O-] units_of_measure=mg/dL experimental_result=159.2
compound=CNC(=C[N+](=O)[O-])NCCSCc1ccc(CN(C)C)o1 units_of_measure=mg/dL experimental_result=147.4
compound="CN1C(=O)CCS(=O)(=O)C1c1ccc(Cl)cc1 (stereo not given)" units_of_measure=mg/dL experimental_result=152
compound=Nc1c2c(nc3ccccc13)CCCC2 units_of_measure=mg/dL experimental_result=153.8

----------
Species: Rattus norvegicus
assay info: Open TG-GATES - Regimen: Single
Format: toxicity, organism-based, Sprague-Dawley
Parameters: regimen Single, gender Male, age 6 weeks
setup conditions: in vivo, po, 300 mg/kg, 6 h, tissue Plasma, route gavage, dose level Middle
Tick condition met if LDH is 80 IU/L or greater. Tick condition not met if LDH is less than 80 IU/L.

structure_notation=CNC(=C[N+](=O)[O-])NCCSCc1ccc(CN(C)C)o1 category_label="condition met"
structure_notation=Cc1nnc2n1-c1ccc(Cl)cc1C(c1ccccc1Cl)=NC2 category_label="condition not met"
structure_notation=O=C(OC[C@H]1O[C@@H](OC(=O)c2cc(O)c(O)c(OC(=O)c3cc(O)c(O)c(O)c3)c2)[C@H](OC(=O)c2cc(O)c(O)c(OC(=O)c3cc(O)c(O)c(O)c3)c2)[C@@H](OC(=O)c2cc(O)c(O)c(OC(=O)c3cc(O)c(O)c(O)c3)c2)[C@@H]1OC(=O)c1cc(O)c(O)c(OC(=O)c2cc(O)c(O)c(O)c2)c1)c1cc(O)c(O)c(OC(=O)c2cc(O)c(O)c(O)c2)c1 category_label="condition met"
structure_notation=CN/C(=N/CCSCc1nc[nH]c1C)NC#N category_label="condition met"

----------
Each record here notes measured Ret.
Species: Rattus norvegicus
assay info: Open TG-GATES - Regimen: Single
Format: toxicity, organism-based, Sprague-Dawley
Parameters: regimen Single, gender Male, age 6 weeks
setup conditions: in vivo, po, 300 mg/kg, 3 h, tissue Blood, route gavage, dose level Middle
measured quantity: Ret (%)

structure_notation=CNC(=C[N+](=O)[O-])NCCSCc1ccc(CN(C)C)o1 units_of_measure=% experimental_result=6.6
structure_notation=CN/C(=N/CCSCc1nc[nH]c1C)NC#N units_of_measure=% experimental_result=8.2
structure_notation=Cc1nnc2n1-c1ccc(Cl)cc1C(c1ccccc1Cl)=NC2 units_of_measure=% experimental_result=9
structure_notation=O=C(OC[C@H]1O[C@@H](OC(=O)c2cc(O)c(O)c(OC(=O)c3cc(O)c(O)c(O)c3)c2)[C@H](OC(=O)c2cc(O)c(O)c(OC(=O)c3cc(O)c(O)c(O)c3)c2)[C@@H](OC(=O)c2cc(O)c(O)c(OC(=O)c3cc(O)c(O)c(O)c3)c2)[C@@H]1OC(=O)c1cc(O)c(O)c(OC(=O)c2cc(O)c(O)c(O)c2)c1)c1cc(O)c(O)c(OC(=O)c2cc(O)c(O)c(O)c2)c1 units_of_measure=% experimental_result=9.9
structure_notation=COC(=O)C1=C(C)NC(C)=C(C(=O)OC)C1c1ccccc1[N+](=O)[O-] units_of_measure=% experimental_result=9.4
